TEST SYSTEM: 5-Lipoxygenase from RBL-1 20,000xg Supernatant (Rattus norvegicus, UniProt P12527)
Construct: 20,000 xg supernatant from 1.5 million homogenized RBL-1 cells; endogenous in cells
Sequence (P12527 whole entry): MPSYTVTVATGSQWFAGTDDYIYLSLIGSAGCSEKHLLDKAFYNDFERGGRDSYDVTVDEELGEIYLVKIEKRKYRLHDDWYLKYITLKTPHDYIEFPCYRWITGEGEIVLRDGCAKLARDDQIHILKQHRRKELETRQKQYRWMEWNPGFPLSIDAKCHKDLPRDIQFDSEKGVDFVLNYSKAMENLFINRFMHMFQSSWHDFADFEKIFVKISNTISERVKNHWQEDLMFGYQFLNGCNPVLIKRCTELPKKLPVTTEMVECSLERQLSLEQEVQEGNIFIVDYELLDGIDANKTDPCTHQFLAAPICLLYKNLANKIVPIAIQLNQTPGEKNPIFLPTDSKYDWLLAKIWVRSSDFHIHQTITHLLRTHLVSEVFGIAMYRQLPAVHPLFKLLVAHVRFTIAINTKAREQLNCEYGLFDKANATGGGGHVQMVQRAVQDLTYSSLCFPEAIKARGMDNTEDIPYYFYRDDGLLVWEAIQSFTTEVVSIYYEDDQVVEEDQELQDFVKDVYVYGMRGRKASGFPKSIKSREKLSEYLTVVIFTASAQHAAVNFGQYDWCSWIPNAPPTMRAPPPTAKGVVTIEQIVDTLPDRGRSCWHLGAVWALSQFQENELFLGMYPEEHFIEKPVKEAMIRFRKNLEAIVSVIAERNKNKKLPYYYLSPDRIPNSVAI
ASSAY: 5-lipoxygenase inhibitory activity, 20,000 xg supernatant from homogenized RBL-1 cells
ASSAY CONTEXT: radiolabeled arachidonic acid, triplicate
Provide the recorded IC50 for the entries that follow.
Numbers only, in µM.

For each entry beneath this line, provide reported IC50.
1. CC(C#Cc1cccc(Oc2ccccn2)c1)N(O)C(N)=O (stereo not drawn)
2. CNC(=O)N(O)C(C)C#Cc1ccccc1 (stereo not drawn)

1. 0.9
2. 3.3

For each entry beneath this line, provide reported IC50.
1. CC(C#Cc1ccc(Cl)cc1)N(O)C(N)=O (stereo not drawn)
2. CC(C#Cc1cccc(Oc2nccs2)c1)N(O)C(N)=O (stereo not drawn)
3. CC(C#CCCCc1ccccc1)N(O)C(N)=O (stereo not drawn) [Example 11, N-Hydroxy,N-(7-phenyl-3-heptyn-2-yl)urea]
4. CC(C#Cc1cccc(Oc2ccc(Cl)cc2)c1)N(O)C(N)=O (stereo not drawn)

1: 0.4; 2: 0.5; 3: 0.7; 4: 0.5
